Data provenance is PubChem BioAssay.

System: Inhibin beta A chain (activin A)
testProtocol: INHBA (activin A) binders on microarrays, primary screen, biochemical, small-molecule microarray, 635 nm fluorescence scan (AID 1107);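 also: mouse activin A protein probed at 4.33 µg/mL on printed slides; score merges bound-protein fluorescence near 667 nm with spot signal-to-noise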
conditionNotes: small-molecule microarray binding, higher = more signal
Can you tell me composite z-score for the items I'm about to list?
Write the value as a bare number.

Check Inhibin beta A chain (activin A) data and give composite z-score for NCCCCCNC(=O)[C@@H]1C[C@@H]2C(=O)N3CCC[C@H]3C(=O)N2[C@@H]1c1cccc(OCCO)c1 .
1.63

Print Inhibin beta A chain (activin A) composite z-score for Cc1ccc(S(=O)(=O)N[C@@H]2COC(=O)[C@H](C)COC(=O)CC=C[C@H]2C)cc1 .
1.16

Determine reported composite z-score for CCCCCCc1nc(CCCc2cc3c(c(CCCCCC)n2)[Si](C(C)C)(C(C)C)O[C@H]3c2ccccc2)cc2c1[Si](C(C)C)(C(C)C)O[C@H]2c1ccccc1 ; test system: Inhibin beta A chain (activin A).
0.656

* * *

targetSystem: Dickkopf-related protein 1 (Homo sapiens)
testProtocol: DKK1 binders on small-molecule microarrays, primary screen, biochemical, small-molecule microarray, 635 nm fluorescence scan (AID 1106);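 also: score merges emission near 667 nm with signal to noise over three replicate slides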
conditionNotes: DKK1 binding, higher = more signal
measuredProperty: composite z-score

Give composite z-score for the following molecule: CCOC(=O)[C@H](Cc1ccccc1)NC(=O)CCC1CC(OC(=O)NCc2ccc3c(c2)OCO3)CC2(CCCC(COC(=O)NCC(c3ccccc3)c3ccccc3)O2)O1 (stereo partly specified)
0.377

Look up composite z-score of CC[C@@H](c1ccccc1)n1c(=O)n2n(c1=O)[C@H]1[C@H](O)[C@@H]3O[C@@H]3C(=NOCC=C(C)CCC=C(C)C)[C@H]1CC2 and report it.
0.916

Report composite z-score for CC(C)=C1C(=O)C(c2ccccc2)=C2CN3C(=O)N(CCc4ccccc4)C(=O)[C@]3(Cc3ccc(F)cc3)[C@H]21
-1.92

Tell me measured composite z-score for C=CC[C@@H]1C=C[C@H](ON=C(C)CCN2CCc3nc(CC)c(CC)cc3C2)[C@@H](CO)O1 please.
0.907

Let me know recorded composite z-score for C=C(/C(=C/C[C@H](OC(=O)c1ccncc1)c1ccc(OCCO)cc1)c1cnc2ccccc2c1)C(C)C , thanks.
0.856

Specify measured composite z-score for COC(=O)[C@@H]1N=C(c2ccc(OCCCO)cc2)O[C@@H]1c1ccccc1N=[N+]=[N-] .
-0.68

* * *

Tested on: XIP peptide (Xip251-270)
testProtocol: small-molecule binders of XIP peptide, primary screen, biochemical, small-molecule microarray, fluorescence 635/667 nm, 0.5 µg/mL protein (AID 1183)
conditionNotes: small-molecule microarray binding, fluorescence 635 nm; higher = more signal
# label = Met if composite z-score >= 0.4 else Not met

Is it the case that CCOC(=O)CCN1C(=O)[C@H]2[C@H]3[C@H](O)[C@H](O)CC(=NNC(=O)OCc4ccc(OC)cc4)[C@@H]3CC[C@H]2C1=O has composite z-score reaching or exceeding 0.4?
Not met

Does CCc1cc2c(nc1CC)CCN(CCC(C)=NO[C@@H](C)c1cc(-c3c(C)cc(C)cc3C)no1)C2 have a reported composite z-score of at least 0.4?
Not met

Please tell me: is the molecule CC(=O)OC[C@H]1O[C@H](CCON=C(C)CCC(=O)OC[C@H]2O[C@H](C#Cc3ccccc3)C=C[C@@H]2Oc2ccc(C)cc2)C=C[C@@H]1OC(C)=O at or over 0.4 in terms of composite z-score?
Not met

// inclusive: composite z-score at least 0.4? input: COc1ccc(-c2nc3c(c4c2C[C@H](C)OC4)CN(CCC(C)C)CC3)cc1
Met

Evaluate CN1C(=O)C2C=CC(C(O)c3ccc(Br)cc3)N(N(c3ccccc3)c3ccccc3)C2C1=O (stereo not given) : composite z-score at minimum 0.4?
Not met

Determine whether this molecule has composite z-score no lower than 0.4: CO[C@H]1COC(=O)[C@@H]2CCCN2C(=O)[C@@H](C)COC(=O)CC=C[C@@H]1C
Not met

I'd appreciate it if you could say whether CO[C@@H]1COC(=O)CC=C[C@@H](C)[C@@H]2C=C[C@@H](O)[C@@H](COC(=O)CC=C[C@H]1C)O2 has composite z-score at least equal to 0.4.
Not met

Reported composite z-score at or above 0.4? COc1cccc([C@@H]2Oc3ccc(Br)cc3C(=O)[C@H]2O)c1
Not met

Does composite z-score meet or surpass 0.4 for CC1(C)OCC(C(O)C2=CCCCC2=O)CO1 (stereo not given) ?
Met

* * *

testProtocol: S. cerevisiae RM11-1a growth modifiers, primary screen, strain RM11-1a, OD600, basal, 24 h (AID 1177);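 also: cultures grown under basal conditions with no added stressor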
conditionNotes: OD600, 24 h, higher = more signal, called active from +8 up or from −8 down
Assignment: determine reported z-score for the given molecules.
Enter the number alone.

Consider the molecule Cc1cc2c(nc1C)CCCN2CC(O)CN1CCN(C)CC1 (centres undefined) . State its measured z-score.
-0.185

Return value of z-score for input [N-]=[N+]=NCc1ccccc1[C@@H]1OC(c2ccc(OCCCO)cc2)=N[C@]1(Cc1ccccc1)C(=O)N1CCOCC1 , no commentary.
0.165

Please give measured z-score of the following entry: COc1ccc([Si](C)(C)[C@H]2[C@H](CCO)O[C@@]3(C(=O)N(Cc4cccc(NC(=O)[C@H](C)O)c4)c4ccccc43)[C@@H]2C)cc1
4.03

Entry CC(C)=NOCc1cccc(-c2cc(-c3ccccc3)no2)c1 needs its z-score filled in; supply it.
-0.39

* * *

testProtocol: adipocyte viability effects, profiling panel, cell-based, 3T3-L1 adipocytes, calcein-AM fluorescence, 48 h, basal (AID 1163)
conditionNotes: 3T3-L1 adipocytes viability, higher = more signal
Task for the reader: assign each of the following molecules its reported z-score.
Just the number, please.

Identify measured z-score associated with CCOC(=O)[C@H](Cc1ccccc1)NC(=O)CCC1CC(OC(=O)NCCc2ccc(F)cc2)CC2(CCCC(COC(=O)NCC(c3ccccc3)c3ccccc3)O2)O1 (some centres not stated)
-0.351

Read the entry C[C@H](c1ccccc1)N1C(=O)[C@H]2[C@H]3[C@H](O)[C@H](O)CC(=O)[C@@H]3CC[C@H]2C1=O and write its reported z-score.
-0.0863

Using known records, supply z-score for COc1ccc(O[C@H]2C=C[C@@H](c3ccccc3)O[C@@H]2COC(=O)CCC(C)=NO[C@H](C)c2cn([C@@H]3COC[C@H]3O)nn2)cc1
-0.547

Find the measured z-score of COc1ccc(O[C@H]2C=C[C@@H](c3ccccc3)O[C@@H]2COC(=O)CCC(C)=NOC(C)CN2CCCCc3nc(C)c(C)cc32)cc1 (some centres not stated) and report it.
-0.471

Provide measured z-score value, entry: C[C@@H]1C=CCC(=O)OC[C@H](C)C(=O)OC[C@H]2O[C@H]1C=C[C@H]2O
-0.261

For the molecule O=C1[C@H]2[C@H]3[C@H](O)[C@H](O)CC(=NOC[C@@H](O)COCc4ccco4)[C@@H]3CC[C@H]2C(=O)N1c1ccc(F)cc1F , give its reported z-score.
0.165

Give the reported z-score for this molecule. CCCCCCc1nc(CCCc2cc3c(c(CCCCCC)n2)[Si](C(C)C)(C(C)C)O[C@H]3c2ccccc2)cc2c1[Si](C(C)C)(C(C)C)O[C@H]2c1ccccc1
-0.352

Provide z-score value for the following molecule: CCc1cc2c(nc1CC)CCN(CCC(C)=NO[C@@H](C)c1cc(-c3c(C)cc(C)cc3C)no1)C2
0.704

Determine from records and report z-score for O=C1NC(=O)C2C1C=CC(C(O)Cc1ccccc1)N2Nc1ccccn1 (configuration not stated)
-0.949

Provide only the value of recorded z-score for O=C1[C@H]2[C@H]3[C@H](O)[C@H](O)CC(=NOC[C@@H](O)COCc4ccco4)[C@H]3CC[C@H]2C(=O)N1C1CCCCC1
0.979

Quick one: give measured z-score for CCOC(=O)CCN1C(=O)[C@H]2[C@H]3[C@H](O)C=CC(=O)[C@@H]3CC[C@H]2C1=O
0.0636

Supply z-score value. Item: COC(=O)[C@H](C)NC(=O)CCC1CC(OC(=O)NCCc2ccc(F)cc2)CC2(CCCC(COC(=O)NCC(c3ccccc3)c3ccccc3)O2)O1 (some centres not stated)
-1

Note z-score for the molecule shown: CC1CC/C=C\[C@H]2OC34C=CCN(C(C)C)C(=O)[C@H]3N(CCCO)C(=O)[C@@H]4C2C(=O)O1 (some centres not stated)
-0.156

Return reported z-score. Input molecule: CCOC(=O)NN=C1C[C@@H](O)[C@@H](O)[C@@H]2[C@@H]3C(=O)N(C4CCCCC4)C(=O)[C@@H]3CC[C@H]12
1.04

Output measured z-score for this item: O=C1[C@H]2[C@H]3[C@H](O)[C@H](O)CC(=NO[C@@H]4O[C@H](CO)[C@@H](O)[C@H](O)[C@H]4O)[C@H]3CC[C@H]2C(=O)N1C1CCCCC1
0.034

Entry COC(=O)[C@@H]1CC[C@H](C)[C@@H](c2ccc(C)cc2)N1C(=O)c1ccc(C=NOC(C)CN2CCCCc3nc(C)c(C)cc32)cc1 (some centres not stated) needs its z-score filled in; supply it.
-0.0501

Hello, please tell me recorded z-score for this one: COCCOC(=O)N1C(=O)[C@@]2(c3cc(C#Cc4ccc(OC)cc4)ccc31)[C@H](c1ccc(O)cc1)N1[C@H](c3ccccc3)[C@H](c3ccccc3)OC(=O)[C@H]1[C@@H]2C(N)=O
0.38

Specify reported z-score for the molecule shown: CC(C)[C@@H](OCc1ccccc1)[C@H](C)C=NOC[C@@H](C)[C@H](OCc1ccccc1)C(C)C
-0.231

State its z-score for this molecule: C[C@H](c1ccccc1)N1C(=O)[C@H]2[C@@H]3C(=CC[C@H]2C1=O)C(=O)[C@H]1O[C@H]1[C@H]3O
0.265

Tell us which z-score value is on record for COCCCNC(=O)[C@]1(Cc2ccccc2)N=C(c2ccc(OCCCO)cc2)O[C@@H]1c1ccccc1
0.346

Write down z-score measured for item CC(C)=CCCC(C)=CCON=C1[C@H]2CCn3c(=O)n(Cc4cc5c(cc4Cl)OCO5)c(=O)n3[C@H]2[C@H](O)[C@@H]2O[C@H]12
0.123

Give z-score for O=C1C2=CC[C@H]3C(=O)N(Cc4ccc5c(c4)OCO5)C(=O)[C@H]3[C@H]2[C@H](O)[C@@H]2O[C@H]12
0.447
